Target Of Assay: T1, purified interference factor(s), Donor C
T1 construct: also called interference in serum from Donor C
Protocol Description: SPR, interference factor immobilized
Below, each entry is listed alongside its reported % of binding of reference (=100%).
Endpoint Name: % of binding of reference (=100%)

Binder: SEQ ID NO: 65 (VHH, Ex. 8) VHH: EVQLVESGGGLVQAGGSLRLSCAASRSIGRLDRMGWYRHRPGEPRELVATITGGSSINYGDSVKGRFTISIDNSKNTVYLQMNSLRPEDTAVYYCNFNKYVTSRDTWGQGTLVTVSS
Result Number: 64
--
Binder: SEQ ID NO: 86 (VHH, Ex. 8) VHH: EVQLVESGGGSVQPGGSLRLSCAASRSIGRLDRMGWYRHRPGEPRELVATITGGSSINYGDSVKGRFTISIDNSKNTVYLQMNSLRPEDTAVYYCNFNKYVTSRDTWGQGTLVQVSS
Result Number: 86
--
Binder: SEQ ID NO: 66 (VHH, Ex. 8) VHH: EVQLVESGGGSVQPGGSLRLSCAASRSIGRLDRMGWYRHRPGEPRELVATITGGSSINYGDSVKGRFTISIDNSKNTVYLQMNSLRPEDTAVYYCNFNKYVTSRDTWGQGTLVTVSS
Result Number: 84
--
Binder: SEQ ID NO: 84 (VHH, Ex. 8) VHH: EVQLVESGGGLVQPGGSLRLSCAASRSIGRLDRMGWYRHRPGEPRELVATITGGSSINYGDSVKGRFTISIDNSKNTVYLQMNSLRPEDTAVYYCNFNKYVTSRDTWGQGTLVTVGS
Result Number: 83
--
Binder: SEQ ID NO: 85 (VHH, Ex. 8) VHH: EVQLVESGGGSVQPGGSLRLSCAASRSIGRLDRMGWYRHRPGEPRELVATITGGSSINYGDSVKGRFTISIDNSKNTVYLQMNSLRPEDTAVYYCNFNKYVTSRDTWGQGTLVQVGG
Result Number: 42
--
Binder: SEQ ID NO: 68 (VHH, Ex. 8) VHH: EVQLVESGGGLVQAGGSLRLSCAASRSIGRLDRMGWYRHRPGEPRELVATITGGSSINYGDSVKGRFTISIDNSKNTVYLQMNSLRPEDTAVYYCNFNKYVTSRDTWGQGTQVTVSS
Result Number: 49
--
Binder: SEQ ID NO: 75 (VHH, Ex. 8) VHH: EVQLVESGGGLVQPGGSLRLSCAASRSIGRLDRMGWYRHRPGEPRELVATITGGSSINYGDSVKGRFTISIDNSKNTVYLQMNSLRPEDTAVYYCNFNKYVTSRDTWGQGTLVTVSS
Result Number: 16
--
Binder: SEQ ID NO: 74 (VHH, Ex. 8) VHH: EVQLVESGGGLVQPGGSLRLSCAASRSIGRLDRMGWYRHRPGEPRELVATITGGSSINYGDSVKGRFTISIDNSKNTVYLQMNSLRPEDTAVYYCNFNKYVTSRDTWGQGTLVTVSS
Result Number: 33
--
Binder: SEQ ID NO: 83 (VHH, Ex. 8) VHH: EVQLVESGGGLVQPGGSLRLSCAASRSIGRLDRMGWYRHRPGEPRELVATITGGSSINYGDSVKGRFTISIDNSKNTVYLQMNSLRPEDAAVYYCNFNKYVTSRDTWGQGTLVTVSS
Result Number: 61
--
Binder: SEQ ID NO: 81 (VHH, Ex. 8) VHH: EVQLVESGGGVVQPGGSLRLSCAASRSIGRLDRMGWYRHRPGEPRELVATITGGSSINYGDSVKGRFTISIDNSKNTVYLQMNSLRPEDTAVYYCNFNKYVTSRDTWGQGTLVTVSS
Result Number: 89
--
Binder: SEQ ID NO: 71 (VHH, Ex. 8) VHH: EVQLVESGGGLVQPGGSLRLSCAASRSIGRLDRMGWYRHRPGEPRELVATITGGSSINYGDSVKGRFTISIDNSKNTVYLQMNSLRPEDTAVYYCNFNKYVTSRDTWGQGTLVTVSG
Result Number: 87
--
Binder: SEQ ID NO: 78 (VHH, Ex. 8) VHH: EVQLVESGGGLVRPGGSLRLSCAASRSIGRLDRMGWYRHRPGEPRELVATITGGSSINYGDSVKGRFTISIDNSKNTVYLQMNSLRPEDTAVYYCNFNKYVTSRDTWGQGTLVTVSS
Result Number: 100
--
Binder: SEQ ID NO: 73 (VHH, Ex. 8; S112G, S113G) VHH: EVQLVESGGGLVQPGGSLRLSCAASRSIGRLDRMGWYRHRPGEPRELVATITGGSSINYGDSVKGRFTISIDNSKNTVYLQMNSLRPEDTAVYYCNFNKYVTSRDTWGQGTLVTVGG
Result Number: 9
